Test system: normal primary NK cells, pool 1 (3 donors) (IL-2 2.5 ng/mL)
Experiment: drug sensitivity score (DSS) (DSS units); higher = more sensitive; extreme values may be limits of the assay
Details: 72 h
Class label 1: drug sensitivity score at least 2. Class label 0: drug sensitivity score below 2.

>  <compound>
Cc1c(C(=O)Nc2ccc(N3C[C@@H](C)O[C@@H](C)C3)nc2)cccc1-c1ccc(OC(F)(F)F)cc1 [Sonidegib] (max concentration tested 10000 nM)

>  <label.value>
label 0

$$$$

# bool: drug sensitivity score of CCC/C=C/C=C/C(=O)O[C@H]1/C(=C/C(=O)OC)C[C@H]2C[C@H]([C@@H](C)O)OC(=O)C[C@H](O)C[C@@H]3C[C@H](OC(C)=O)C(C)(C)[C@](O)(C[C@@H]4C/C(=C/C(=O)OC)C[C@H](/C=C/C(C)(C)[C@]1(O)O2)O4)O3 [Bryostatin 1] (max concentration tested 100 nM) >= 2
label 0

And for COc1cc(N2CCN(C)CC2)ccc1Nc1nccc(-c2cn(C)c3cnccc23)n1 [AZ191] (max concentration tested 10000 nM) ?
label 1

And for COc1cc2c(cc1-c1c(C)noc1C)ncc1[nH]c(=O)n([C@H](C)c3ccccn3)c12 [I-BET151] (max concentration tested 10000 nM) ?
label 1

And for CC(C)(C)Cn1c(N)nc2ccc(-c3[nH]c(C(C)(C)C)nc3-c3ccc(F)cc3)nc21 [Ralimetinib] (max concentration tested 10000 nM) ?
label 1

And for O[C@H]1CC[C@H](Nc2ncc3nc(Nc4c(F)cc(F)cc4F)n([C@H]4CCOC4)c3n2)CC1 [Tanzisertib] (max concentration tested 10000 nM) ?
label 0
